Experiment: Microsomal metabolic stability in rat liver microsomes assessed as half life
Format: ADME, Microsome
This section presents compounds with their documented half-life values.

substance_smiles=[2H]C([2H])([2H])NC1=NC(=O)[C@]2(CCc3ncccc32)c2cc(C(C)(F)F)ccc21 parameter=half-life result="> 3.1 h"

So for `[2H]C([2H])([2H])NC1=NC(=O)[C@]2(CCc3ncccc32)c2cc(C(F)(F)F)ccc21` , the logged half-life turned out to be > 3.1 h

====

Test: Cmax in beagle dog at 10 mg/kg, po measured upto 24 hrs upto 24 hrs by LC-MS/MS analysis
Assay type: ADME, organism-based, Canis lupus familiaris
Settings: in vivo
Parameter: Cmax (ng/mL)

substance_smiles=[2H]C([2H])([2H])NC1=NC(=O)[C@]2(CCc3ncccc32)c2cc(C(F)(F)F)ccc21 measured_number=1660
substance_smiles=[2H]C([2H])([2H])NC1=NC(=O)[C@]2(CCc3ncccc32)c2cc(C(C)(F)F)ccc21 measured_number=2140

Data provenance is ChEMBL document CHEMBL6121044.
